Test system: PC12 cells
Assay: MTT toxicity (safety evaluation) on PC12 nerve cells
Format: cell-based
Details: PC12, 15 μM, 48 h
Please provide measured Rank (cytotoxicity standard) 48 h for the entries that follow.
Response field accepts a number only; no unit should be typed.

# lookup: Rank (cytotoxicity standard) 48 h of CCN1C/C(=C\c2cc(Cl)c(O)c(Cl)c2)C(=O)/C(=C/c2cc(Cl)c(O)c(Cl)c2)C1 [CAK03] 1

Field entry: COc1cc(/C=C2\CNC/C(=C\c3cc(Cl)c(O)c(OC)c3)C2=O)cc(Cl)c1O [CAK06] 1

Follow-up entry: O=C1/C(=C/c2cc(Cl)c(O)c(Cl)c2)CNC/C1=C\c1cc(Cl)c(O)c(Cl)c1 [CAK01] 1

Now this one: COc1cc(/C=C2\CN(C(C)C)C/C(=C\c3cc(Cl)c(O)c(OC)c3)C2=O)cc(Cl)c1O [CAK05] 3

Input CN1C/C(=C\c2cc(Cl)c(O)c(Cl)c2)C(=O)/C(=C/c2cc(Cl)c(O)c(Cl)c2)C1 [CAK02] 1

Then what about the compound COc1cc(/C=C2\CN(C)C/C(=C\c3cc(Cl)c(O)c(OC)c3)C2=O)cc(Cl)c1O [CAK07] ? 3

Please do the same for CC(C)N1C/C(=C\c2cc(Cl)c(O)c(Cl)c2)C(=O)/C(=C/c2cc(Cl)c(O)c(Cl)c2)C1 [CAK04] as well. 1

All values here come from patent US20250289786A1.
